assay: Induction of apoptosis in human monocytes assessed as late apoptotic cells using Annexin V/propidium iodide by flow cytometry (reference value: 0.27 %); assay type: cell-based; conditions: monocyte
Could you label it rule met if measured Activity is 3% or higher, and rule not met otherwise?

SMILES_CODE	LABEL
NC(=S)N/N=C/c1ccc(Sc2ccccc2C(F)(F)F)o1	rule not met
NC(=S)N/N=C/c1ccc(Sc2c(F)c(F)c(C(F)(F)F)c(F)c2F)o1	rule met
NC(=S)N/N=C/c1ccc(Sc2ccc(C(F)(F)F)cc2)o1	rule met
NC(=S)N/N=C/c1ccc(Sc2ccc(C(F)(F)F)cc2[N+](=O)[O-])o1	rule not met
NC(=S)N/N=C/c1ccc(Sc2cccc(C(F)(F)F)c2)o1	rule met
O=C(Cn1ccnc1[N+](=O)[O-])NCc1ccccc1	rule met

Data credit: ChEMBL document CHEMBL3351362
